target: Protein Wnt-3a (Mus musculus, UniProt P27467); test: antagonism of Wnt3a pathway luciferase reporter – Wnt-LIGHT cells, luminescence, selectivity assay for Gli-SUFU antagonist project, dose response (AID 651570); assay type: functional; conditions: read-out: IC50_Mean;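 also: Wnt-LIGHT reporter cells stimulated with conditioned medium from Wnt3a-producing cells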
Sequence (P27467 whole entry): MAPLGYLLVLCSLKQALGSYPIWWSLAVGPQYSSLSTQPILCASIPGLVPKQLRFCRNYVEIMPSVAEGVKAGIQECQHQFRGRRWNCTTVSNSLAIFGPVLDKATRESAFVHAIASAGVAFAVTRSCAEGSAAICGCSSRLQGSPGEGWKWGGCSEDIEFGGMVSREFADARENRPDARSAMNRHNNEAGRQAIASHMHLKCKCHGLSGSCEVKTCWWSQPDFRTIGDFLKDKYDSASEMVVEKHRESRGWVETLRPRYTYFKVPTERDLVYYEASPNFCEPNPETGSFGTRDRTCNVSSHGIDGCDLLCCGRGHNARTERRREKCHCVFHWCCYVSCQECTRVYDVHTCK
Active and inactive are the calls of the source. Rule as the data show it: active = IC50 of 20 µM or less and inactive = more.
MEASUREMENT LABEL: IC50

Here's what some known entries look like.
[
  {
    "COMPOUND": "Cc1ccc(C(=O)N2CCN3C(=O)c4ccccc4C23c2ccc(Cl)cc2)cc1 (centres undefined)",
    "RESULT": "10.3 µM (active)"
  },
  {
    "COMPOUND": "Cc1ccc(NCC(=O)Nc2cccc(S(=O)(=O)N(C)C)c2)cc1S(=O)(=O)N1CCCCCC1",
    "RESULT": "8.18 µM (active)"
  },
  {
    "COMPOUND": "COc1ccccc1NS(=O)(=O)c1cccc(C(=O)NC2CCN(Cc3ccccc3)CC2)c1",
    "RESULT": "4.3 µM (active)"
  }
]

From here, focus on the item given below.
input: Returns the measured IC50 for the input compound. Input: CCOC(=O)CC1CCCCN1C(=O)c1cc(COc2cccc3cnccc23)on1 (centres undefined)
output: 0.777 µM (active)
